- Tested on: Malme-3M
- Method summary: NCI tumour cell line growth inhibition, 48 h
Calls of active or inactive are those of the source. Rule as the data show it: active = GI50 up to about 1.1 µM and inactive = higher.
Property: GI50

In [3]: df
Out[3]:
                                   compound  property            measured
0  COc1cc(/C=C2\N=C(c3ccccc3)N(c3nc4c(OC)ccc(OC)c4s3)C2=O)ccc1O      GI50  85.7 µM (inactive)

Now examine the next entry.
QUERY: Name the recorded GI50 for O=c1c2ccccc2nc(-c2ccccc2Cl)n1NC1OC(CO)C(O)C(O)C1O (stereo not drawn) .
RESULT: > 100 µM (inactive)
